Hey, just so you know, these numbers are from patent US12071408B2.

Reported pIC50 is given for each of the following compounds.
STUDY SYSTEM: FGFR3 (Homo sapiens (Human), UniProt P22607)
Sequence (P22607 23-806): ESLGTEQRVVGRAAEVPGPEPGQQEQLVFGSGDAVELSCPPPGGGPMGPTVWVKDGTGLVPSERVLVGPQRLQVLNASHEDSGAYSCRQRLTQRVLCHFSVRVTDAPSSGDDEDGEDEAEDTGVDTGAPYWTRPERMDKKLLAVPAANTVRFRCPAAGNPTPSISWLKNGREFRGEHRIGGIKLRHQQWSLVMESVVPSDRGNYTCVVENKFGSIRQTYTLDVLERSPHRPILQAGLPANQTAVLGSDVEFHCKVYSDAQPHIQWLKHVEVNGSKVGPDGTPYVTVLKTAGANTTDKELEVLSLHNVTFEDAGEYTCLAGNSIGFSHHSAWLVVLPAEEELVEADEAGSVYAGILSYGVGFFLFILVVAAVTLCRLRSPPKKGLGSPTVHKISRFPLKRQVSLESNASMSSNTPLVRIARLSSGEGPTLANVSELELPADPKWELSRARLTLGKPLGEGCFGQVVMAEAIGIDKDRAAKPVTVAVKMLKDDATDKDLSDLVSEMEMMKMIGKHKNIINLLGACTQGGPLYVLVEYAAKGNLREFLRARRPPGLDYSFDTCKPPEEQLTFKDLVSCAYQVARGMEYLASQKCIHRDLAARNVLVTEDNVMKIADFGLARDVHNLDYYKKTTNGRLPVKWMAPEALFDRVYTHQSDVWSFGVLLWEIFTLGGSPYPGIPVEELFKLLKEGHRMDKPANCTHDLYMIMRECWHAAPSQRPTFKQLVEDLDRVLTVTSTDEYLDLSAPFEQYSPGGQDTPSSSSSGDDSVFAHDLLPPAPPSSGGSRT
EXPERIMENT: Kinase inhibition, Mobility-Shift Assay
Format: biochemical
CONDITION SET: read-out: FGFR-3 IC50
Worth noting: pIC50 values are minus log10 of concentrations stated in mol/L.

// below: answered compounds
{"COMPOUND": "COc1cc2nccc(Oc3ccc(NC(=O)NC4CC4)c(Cl)c3)c2cc1C(N)=O [Lenvatinib, reference compound]", "STUDY SYSTEM": "FGFR3 (Homo sapiens (Human), UniProt P22607)", "REPORTED VALUE": 7.23}
{"COMPOUND": "CNC(=O)c1cc(Oc2ccc(NC(=O)Nc3ccc(Cl)c(C(F)(F)F)c3)c(F)c2)ccn1 [Regorafenib, reference compound]", "STUDY SYSTEM": "FGFR3 (Homo sapiens (Human), UniProt P22607)", "REPORTED VALUE": 7.21}

Briefly, pIC50 measured for COc1cc2nccc(Oc3c(F)cc(NC(=O)NC4CC4)c(Cl)c3F)c2cc1C(N)=O : 7.66
